- Tested on: Klebsiella aerogenes DSM 30053
- assay-comment: fold change of Putrescine concentration vs plate DMSO controls (fold change (ratio)); higher = more amine produced, active = hit call of the paper (significant change in both replicates, either direction)
- condition-label: incubation time: 27 h, anaerobic, 37 °C
Counter-ions that a name gives are not always drawn.
endpoint: fold change of Putrescine concentration
// no unit string in output, number only

Measured fold change of Putrescine concentration of CO[C@@H]1[C@@H](OC(N)=O)[C@@H](O)[C@H](Oc2ccc3c(O)c(NC(=O)c4ccc(O)c(CC=C(C)C)c4)c(=O)oc3c2C)OC1(C)C [Novobiocin sodium salt] (20 µM) : 0.986

Measured fold change of Putrescine concentration of C[C@@H]1C[C@H]2[C@@H]3CCC4=CC(=O)C=C[C@]4(C)[C@@]3(Cl)[C@@H](O)C[C@]2(C)[C@@]1(OC(=O)c1ccco1)C(=O)CCl [Mometasone furoate] (20 µM) : 1

Measured fold change of Putrescine concentration of C/C(=C1\CCOC(=O)S1)N(C=O)Cc1cnc(C)nc1N [Cycotiamine] (20 µM) : 1.01

Measured fold change of Putrescine concentration of O=C(CCNNC(=O)c1ccncc1)NCc1ccccc1 [Nialamide] (20 µM) : 1

Measured fold change of Putrescine concentration of O=C(O)/C=C/c1ccc(Cn2ccnc2)cc1 [Ozagrel hydrochloride] (20 µM) : 0.993
